- Tested on: Escherichia coli TOP10
- MEASUREMENT PROTOCOL: shrunken log2 fold change of peptide-encoding DNA abundance (4.5 h post-induction vs induction); higher = less antimicrobial activity (less host growth inhibition)
- STATED CONDITIONS: time post-induction: 4.5 h; library: site-saturation at positions 5, 18, 19, 20
Each entry gets 0 if its shrunken log2 fold change stays under -0.05, and 1 if its shrunken log2 fold change is -0.05 or above.

{"MACROMOLECULE SEQUENCE": "RRIRARPPRLPRPRPRPGKEPRP", "ASSIGNED LABEL": 1}
{"MACROMOLECULE SEQUENCE": "RRIRKRPPRLPRPRPRPVRNPRP", "ASSIGNED LABEL": 1}
{"MACROMOLECULE SEQUENCE": "RRIRSRPPRLPRPRPRPWDFPRP", "ASSIGNED LABEL": 0}
{"MACROMOLECULE SEQUENCE": "RRIRVRPPRLPRPRPRPIKDPRP", "ASSIGNED LABEL": 1}

(Q) Identify whether the reported shrunken log2 fold change of the following sequence is -0.05 or greater: RRIRIRPPRLPRPRPRPMNPPRP
(A) 0

(Q) Identify whether the reported shrunken log2 fold change of the following sequence is -0.05 or greater: RRIRGRPPRLPRPRPRPWLQPRP
(A) 1

(Q) Identify whether the reported shrunken log2 fold change of the following sequence is -0.05 or greater: RRIRWRPPRLPRPRPRPGNCPRP
(A) 0

(Q) Identify whether the reported shrunken log2 fold change of the following sequence is -0.05 or greater: RRIRLRPPRLPRPRPRPKMNPRP
(A) 0

(Q) Identify whether the reported shrunken log2 fold change of the following sequence is -0.05 or greater: RRIRIRPPRLPRPRPRPFAYPRP
(A) 0

(Q) Identify whether the reported shrunken log2 fold change of the following sequence is -0.05 or greater: RRIRNRPPRLPRPRPRPRYVPRP
(A) 0

* * *

- System: Escherichia coli TOP10;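 note: peptides expressed intracellularly from a pBAD plasmid library in pooled LB shake-flask culture, induced with 0.3% L-arabinose, DNA abundance read by NGS, three biological replicates, DESeq2 with apeglm shrinkage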
- MEASUREMENT PROTOCOL: shrunken log2 fold change of peptide-encoding DNA abundance (4.5 h post-induction vs induction); higher = less antimicrobial activity (less host growth inhibition)
- STATED CONDITIONS: time post-induction: 4.5 h; library: site-saturation at positions 5, 18, 19, 20
ASSAY READOUT: shrunken log2 fold change
Give bare numbers.

Would you please look over these solved cases?
{"MACROMOLECULE SEQUENCE": "RRIRWRPPRLPRPRPRPNNCPRP", "TEST VALUE": 0.00476}
{"MACROMOLECULE SEQUENCE": "RRIRWRPPRLPRPRPRPKDWPRP", "TEST VALUE": 0.246}
{"MACROMOLECULE SEQUENCE": "RRIRIRPPRLPRPRPRPILCPRP", "TEST VALUE": -0.0872}

Each sequence below has a recorded value; state its shrunken log2 fold change.
1. RRIRERPPRLPRPRPRPQTQPRP
2. RRIRGRPPRLPRPRPRPGLCPRP
3. RRIRYRPPRLPRPRPRPNVYPRP
4. RRIRNRPPRLPRPRPRPLPIPRP
5. RRIRARPPRLPRPRPRPKMFPRP
6. RRIRQRPPRLPRPRPRPNKAPRP

(A)
[-0.0049, 0.957, -1.2, -0.299, -0.0487, -0.041]

Each sequence below has a recorded value; state its shrunken log2 fold change.
1. RRIRARPPRLPRPRPRPWCAPRP
2. RRIRGRPPRLPRPRPRPMMLPRP
3. RRIRHRPPRLPRPRPRPCMWPRP
4. RRIRGRPPRLPRPRPRPEEVPRP

(A)
1: 0.147; 2: 0.158; 3: -0.193; 4: 1.53
